Data credit: patent US20190110476A1

Overview of reported LogP across a group of compounds:
assayProtocol: Measurement of LogP values by HPLC on reversed phase columns (EEC directive 79/831 Annex V.A8)
Type: physicochemical
Marks after values point to notes of the source that are not given here.

Example cases with answers are listed next.
C[C@H](NC(=O)c1snc(N)c1-c1ccc(F)cc1)C1CCCCC1	3.29[a]
CC(C)N(Cc1ccc(Cl)cc1Cl)C(=O)c1cc(N)ns1	3.08[a]
Cc1cc(CNC(=O)c2snc(N)c2Cl)ccc1F	2.28[a]
CC(C)CNC(=O)c1cc(N)ns1	1.07[a]
CCc1c(CNC(=O)c2snc(NCc3ccc(OC)cc3)c2Cl)cnn1CC	2.82[a]
CC(C)N(C(=O)c1snc(NC(=O)C(C)(C)C)c1Cl)C(C)C	2.80[a]

Now look at this one.
Asked: Fill in LogP for record O=C(c1cc(N(Cc2ccccc2)Cc2ccccc2)ns1)N(Cc1ccccc1)C1CC1
Given back: 5.36[a]
